procedure-summary: Inhibition of baker's yeast alpha-glucosidase using PNPG as substrate preincubated for 15 mins followed by substrate addition and measured after 15 mins
Parameters: species or system Saccharomyces cerevisiae
readout-kind: IC50 (µg/mL)

For Cc1cc(O)c2c(c1)C(C1c3cccc(O)c3C(=O)c3c(O)cc(C)cc31)c1cccc(O)c1C2=O (centres undefined) , write its IC50. 60.09

I: COc1cc(O)c2c(O)c3c(=O)oc(C)cc3cc2c1
II: COc1ccc2c(c1O)C(=O)c1c(cc(C)c(O)c1OC)C2=O
Lab note: check whether I or II has the lower measured IC50. Answer by quoting the chosen item's label. I

* * *

procedure-summary: Inhibition of baker's yeast alpha-glucosidase using PNPG as substrate preincubated for 15 mins followed by substrate addition and measured after 15 mins
Parameters: species or system Saccharomyces cerevisiae
readout-kind: IC50 (µg/mL)

Consider the reported IC50 for these compounds:
For COc1c(O)c(C)cc2c1C(=O)c1c(O)cccc1C2=O [OBTUSIFOLIN] , write its IC50. 144.64

For COc1cc(O)cc2c1C(=O)c1c(O)cc(C)cc1C2=O [QUESTIN] , write its IC50. 117.94

For COc1c(C)cc2c(c1O)C(=O)c1c(cc(O)c(OC)c1O)C2=O , write its IC50. 120.65

For COc1cc(O)c2c(O)c3c(=O)cc(C)oc3cc2c1 [RUBROFUSARIN] , write its IC50. 162.04

A: Cc1cc(O)c2c(c1)C(=O)c1cccc(O)c1C2=O [CHRYSOPHANOL]
B: COc1cc2c(c(O)c1OC)C(=O)c1c(cc(C)c(OC)c1OC)C2=O
C: COc1cc(O)c2c(c1)C(=O)c1cc(C)cc(O)c1C2=O [PHYSCION]
D: COc1c(O)cc2c(c1O)C(=O)c1c(cc(C)c(O)c1OC)C2=O [AURANTIOOBTUSIN]
Ordering criterion: IC50; begin with the maximum. Present the labels in the sequence the task asks for. B, D, A, C
